Target: human GPRC5D protein (human) (UniProt Q9NZD1)
Sequence (Q9NZD1 whole entry): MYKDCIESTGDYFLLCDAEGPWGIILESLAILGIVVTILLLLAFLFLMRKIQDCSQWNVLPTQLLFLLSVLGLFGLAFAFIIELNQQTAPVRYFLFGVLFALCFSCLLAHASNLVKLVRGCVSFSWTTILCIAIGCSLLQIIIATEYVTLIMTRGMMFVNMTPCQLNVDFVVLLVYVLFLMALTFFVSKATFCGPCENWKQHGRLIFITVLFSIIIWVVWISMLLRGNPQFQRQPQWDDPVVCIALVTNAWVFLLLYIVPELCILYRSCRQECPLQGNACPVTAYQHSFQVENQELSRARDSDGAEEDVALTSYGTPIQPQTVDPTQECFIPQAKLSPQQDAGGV
Experiment: FACS, hybridoma subclone supernatant on NCI-H929 cells
MFI values by entry
Express it in MFI; write the number only.

Item: mu-89 (antibody, V domains shown) VH: EVQLVESGGDLVKPGGSLKLSCAASGFTFSSYGMSWVRQTPDKRLEWVATISSGGSYTYYPDSVKGRFTFSRDNAKNTLYLQMSSLKSEDTAMYYCVRQALRYHMDSWGQGTSVTVSS VL: DIVMTQSQKFMSTSVGDRVSVTCKASQNVGTNVAWYQQKPGQSPKALIYSASYRYSGVPDRFTGSGSGTDFTLTISNVQSEDLADFFCQQYYSYPWTFGGGTKLEIK | MFI: 11900

Item: mu-169 (antibody, V domains shown) VH: EVKLVESGGGLVKPGASLKLSCAASGFTFSNYGMSWVRQTSDKRLEWVASISSGGGRIYYPDNVKGRFTISRENAKNTLYLQMSSLKSEDTALYYCTRHAMDNWGQGTSVIVSS VL: QIVLTQSPAIMSASPGEKVTMTCSASSSVSNMYWYQQKSGTSPKRWIYDTSKLASGVPARFSGSGSGTSYSLTISSMEAEDASTYYCQQWSSNPLTFGAGTTLELK | MFI: 59300

Item: mu-105 (antibody, V domains shown) VH: EVQLQQSGPELVKPGASVKMSCKASGYTFTDYYMNWVKQSHGKSLEWIGYIYPNNGGTGYNQRFKGKATLTADKSSSTAYMELRSLTSEDSAVYYCARWGGTRLGYYAMDYWGQGTSVTVSS VL: DIVMTQSQKFMSTSVGDRVSVTCKASQNVGTNVVWYQQKPGQSPKLLIYWASTRHTGVPDRFTGSGSGTDFTLTISNVQSEDLADYFCQQYSRYPYTFGGGTKLEIK | MFI: 13200

Item: mu-128 (antibody, V domains shown) VH: DVQLVESGGGLVQPGGSRKVSCAASGFTFSSFGMHWVRQAPEKGLEWVAYISRGSSTIYYADTVKGRFTISRDNPKNTLFLQMTSLRSEDTAMYYCARSGYGSSSYYFDYWGQGTTLTVSS VL: ENVLTQSPAIMSASPREKVTMTCRASSSIRSSYLHWYQQKSGASPKLWIYSTSNLASGVPARFSGSGSGTSYSLTISSVEAEDAATYYCQQFSGYPLTFGGGTKLEIK | MFI: 15700

Turning now to a further record.
Item: mu-131 (antibody, V domains shown) VH: EVQLQQSGPELVKPGASVKMSCKASGYTFTNYVMHWVKQKPGQGLEWIGYFNPYNDGTNYNEKFKGKATLTSDKSSNTAYMELSSLTSEDSAVYYCARGGVRRYFDVWGAGTTVTVSS VL: DIQMTQSPSSLSASLGERVSLTCRASQDIGSNLNWLQLGPDGTIKRLIYATFSLDSGVPKRFSGSRSGSDYSLTISSLESEDFVDYYCQQYANFPPTFGGGTKLEIK | MFI: 12800

# credit: patent EP4703384A1
